Numbers sourced from paper PMC8260592.

Tgt: MAO-B (Homo sapiens)
Construct: purchased Sigma-Aldrich
Sequence (P27338 whole entry): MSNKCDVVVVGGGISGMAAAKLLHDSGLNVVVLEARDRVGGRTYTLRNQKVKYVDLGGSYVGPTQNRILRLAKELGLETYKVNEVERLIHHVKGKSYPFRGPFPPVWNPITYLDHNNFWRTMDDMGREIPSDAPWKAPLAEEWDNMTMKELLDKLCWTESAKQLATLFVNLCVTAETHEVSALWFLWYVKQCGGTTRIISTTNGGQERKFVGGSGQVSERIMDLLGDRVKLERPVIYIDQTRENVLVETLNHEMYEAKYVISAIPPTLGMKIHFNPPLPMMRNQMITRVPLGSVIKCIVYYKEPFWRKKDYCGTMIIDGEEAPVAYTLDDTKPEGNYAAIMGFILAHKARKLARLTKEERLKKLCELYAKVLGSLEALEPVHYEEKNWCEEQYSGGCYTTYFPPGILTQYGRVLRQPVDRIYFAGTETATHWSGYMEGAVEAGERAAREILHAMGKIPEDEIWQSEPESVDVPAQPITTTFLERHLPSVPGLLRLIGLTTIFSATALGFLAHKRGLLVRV
Test Summary: biochemical
Assay Setup: read-out: IC50 (µM) MAO-B
Quick list: IC50 per entry.

Example cases with answers are listed next.
- Compound: "COc1cc2c(=O)oc3c(OC)c(O)cc4c(=O)oc(c1OC)c2c34 [Compound 4, 3,3′,4-tri-O-methylellagic acid]"
  Tgt: "MAO-B (Homo sapiens)"
  IC50: "> 40 µM"
- Compound: "COc1cc2c(=O)oc3c(OC)c(O[C@@H]4O[C@@H](C)[C@H](O)[C@@H](O)[C@H]4O)cc4c(=O)oc(c1OC)c2c34 [Compound 3]"
  Tgt: "MAO-B (Homo sapiens)"
  IC50: "7.27 µM"

Task item: Recorded IC50 for O=C(OCc1cc(O)c(O[C@@H]2O[C@H](CO)[C@@H](O)[C@H](O)[C@H]2O)c(O)c1)c1cc(O)c(O)c(Oc2c(C(=O)OCc3cc(O)c(O[C@@H]4O[C@H](CO)[C@@H](O)[C@H](O)[C@H]4O)c(O)c3)cc(O)c(O)c2O)c1 [Compound 1, chestanin] , please?
Reply: > 40 µM

Task item: Requested field: IC50. Item: COc1cc2c(=O)oc3c(OC)c(O[C@@H]4O[C@H](CO)[C@@H](O)[C@H](O)[C@H]4O)cc4c(=O)oc(c1OC)c2c34 [Compound 2]
Reply: > 40 µM

====

Entries and their measured SI follow.
Tgt: AChE (Type VI-S from Electrophorus electricus) (Electrophorus electricus)
Sequence (O42275 24-633): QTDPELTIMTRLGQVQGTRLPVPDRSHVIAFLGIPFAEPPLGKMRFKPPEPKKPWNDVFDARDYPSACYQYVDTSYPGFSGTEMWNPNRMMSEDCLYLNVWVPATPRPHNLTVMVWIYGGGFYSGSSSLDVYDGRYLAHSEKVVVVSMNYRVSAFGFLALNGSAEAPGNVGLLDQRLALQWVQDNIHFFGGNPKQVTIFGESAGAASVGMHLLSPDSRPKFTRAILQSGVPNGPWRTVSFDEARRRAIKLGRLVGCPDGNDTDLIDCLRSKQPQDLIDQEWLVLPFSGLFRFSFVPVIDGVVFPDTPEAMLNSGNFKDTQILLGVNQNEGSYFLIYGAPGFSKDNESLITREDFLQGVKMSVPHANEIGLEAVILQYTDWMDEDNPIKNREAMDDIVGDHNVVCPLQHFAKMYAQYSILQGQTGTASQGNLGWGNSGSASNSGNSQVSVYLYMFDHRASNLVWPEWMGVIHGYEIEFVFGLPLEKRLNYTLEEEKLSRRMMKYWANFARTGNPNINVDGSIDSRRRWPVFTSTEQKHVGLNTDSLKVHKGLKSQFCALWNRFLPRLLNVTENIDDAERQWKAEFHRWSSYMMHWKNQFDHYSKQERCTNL
Test Summary: biochemical
Assay Setup: IC50 for BChE divided by IC50 for AChE

- Molecule: "O=c1oc2c(O)c(O)cc3c(=O)oc4c(O)c(O)cc1c4c23 [Compound 5, ellagic acid]"
  SI: "> 1.0"
- Molecule: "COc1cc2c(=O)oc3c(OC)c(O)cc4c(=O)oc(c1OC)c2c34 [Compound 4, 3,3′,4-tri-O-methylellagic acid]"
  SI: "> 3.7"
- Molecule: "O=C(OCc1cc(O)c(O[C@@H]2O[C@H](CO)[C@@H](O)[C@H](O)[C@H]2O)c(O)c1)c1cc(O)c(O)c(Oc2c(C(=O)OCc3cc(O)c(O[C@@H]4O[C@H](CO)[C@@H](O)[C@H](O)[C@H]4O)c(O)c3)cc(O)c(O)c2O)c1 [Compound 1, chestanin]"
  SI: "> 1.1"
- Molecule: "COc1cc2c(=O)oc3c(OC)c(O[C@@H]4O[C@@H](C)[C@H](O)[C@@H](O)[C@H]4O)cc4c(=O)oc(c1OC)c2c34 [Compound 3]"
  SI: "> 4.0"

Task item: Write down the reported SI of COc1cc2c(=O)oc3c(OC)c(O[C@@H]4O[C@H](CO)[C@@H](O)[C@H](O)[C@H]4O)cc4c(=O)oc(c1OC)c2c34 [Compound 2] , test system: AChE (Type VI-S from Electrophorus electricus) (Electrophorus electricus).
Reply: > 0.9

====

compounds and their reported remaining activity at 10 µM
Tgt: AChE (Type VI-S from Electrophorus electricus) (Electrophorus electricus)
Test Summary: biochemical
Assay Setup: read-out: Residual activity at 10 µM (%) AChE
Please give a number only; it is taken to be in %.

The examples below pair each entry with its known result.
- Compound: "COc1cc2c(=O)oc3c(OC)c(O[C@@H]4O[C@H](CO)[C@@H](O)[C@H](O)[C@H]4O)cc4c(=O)oc(c1OC)c2c34 [Compound 2]"
  Value Unit: "%"
  remaining activity at 10 µM: 70.5
- Compound: "O=c1oc2c(O)c(O)cc3c(=O)oc4c(O)c(O)cc1c4c23 [Compound 5, ellagic acid]"
  Value Unit: "%"
  remaining activity at 10 µM: 81.5
- Compound: "COc1cc2c(=O)oc3c(OC)c(O)cc4c(=O)oc(c1OC)c2c34 [Compound 4, 3,3′,4-tri-O-methylellagic acid]"
  Value Unit: "%"
  remaining activity at 10 µM: 53.2
- Compound: "O=C(OCc1cc(O)c(O[C@@H]2O[C@H](CO)[C@@H](O)[C@H](O)[C@H]2O)c(O)c1)c1cc(O)c(O)c(Oc2c(C(=O)OCc3cc(O)c(O[C@@H]4O[C@H](CO)[C@@H](O)[C@H](O)[C@H]4O)c(O)c3)cc(O)c(O)c2O)c1 [Compound 1, chestanin]"
  Value Unit: "%"
  remaining activity at 10 µM: 72.5

Now for another entry.
Task item: Look up remaining activity at 10 µM for this compound: COc1cc2c(=O)oc3c(OC)c(O[C@@H]4O[C@@H](C)[C@H](O)[C@@H](O)[C@H]4O)cc4c(=O)oc(c1OC)c2c34 [Compound 3]
Reply: 55.4

====

Tgt: MAO-B (Homo sapiens)
Construct: purchased Sigma-Aldrich
Test Summary: Kinetics of MAO-B inhibition (Lineweaver-Burk and secondary plots)
Type: biochemical
Assay Setup: secondary plots of LB slopes; substrate 0.0375-0.6 mM; read-out: Ki for MAO-B
Measure Name: Ki

Task item: // lookup Ki for COc1cc2c(=O)oc3c(OC)c(O[C@@H]4O[C@@H](C)[C@H](O)[C@@H](O)[C@H]4O)cc4c(=O)oc(c1OC)c2c34
Reply: 2.25 µM

====

Tgt: Recombinant human MAO-A (Homo sapiens, UniProt P21397)
Construct: purchased Sigma-Aldrich
Sequence (P21397 1-527): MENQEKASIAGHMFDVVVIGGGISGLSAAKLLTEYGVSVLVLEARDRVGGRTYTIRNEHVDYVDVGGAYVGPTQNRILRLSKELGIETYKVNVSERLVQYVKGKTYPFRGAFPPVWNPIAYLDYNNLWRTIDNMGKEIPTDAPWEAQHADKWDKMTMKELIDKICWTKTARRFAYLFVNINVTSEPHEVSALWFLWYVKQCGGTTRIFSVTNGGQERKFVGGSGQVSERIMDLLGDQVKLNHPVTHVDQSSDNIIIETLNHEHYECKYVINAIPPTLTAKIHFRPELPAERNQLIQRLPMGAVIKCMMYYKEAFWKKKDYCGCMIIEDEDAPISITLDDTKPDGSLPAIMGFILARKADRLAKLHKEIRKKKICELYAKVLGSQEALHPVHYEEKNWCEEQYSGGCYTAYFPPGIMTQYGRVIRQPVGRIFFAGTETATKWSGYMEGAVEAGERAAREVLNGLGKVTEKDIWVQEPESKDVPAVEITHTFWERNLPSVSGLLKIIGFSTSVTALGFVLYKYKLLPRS
Test Summary: biochemical
Measure Name: IC50

Task item: Given the compound O=c1oc2c(O)c(O)cc3c(=O)oc4c(O)c(O)cc1c4c23 , what is its reported IC50?
Reply: > 40 µM

====

Tgt: BACE-1 (Homo sapiens, UniProt P56817)
Construct: purchased Sigma-Aldrich
Sequence (P56817 46-457): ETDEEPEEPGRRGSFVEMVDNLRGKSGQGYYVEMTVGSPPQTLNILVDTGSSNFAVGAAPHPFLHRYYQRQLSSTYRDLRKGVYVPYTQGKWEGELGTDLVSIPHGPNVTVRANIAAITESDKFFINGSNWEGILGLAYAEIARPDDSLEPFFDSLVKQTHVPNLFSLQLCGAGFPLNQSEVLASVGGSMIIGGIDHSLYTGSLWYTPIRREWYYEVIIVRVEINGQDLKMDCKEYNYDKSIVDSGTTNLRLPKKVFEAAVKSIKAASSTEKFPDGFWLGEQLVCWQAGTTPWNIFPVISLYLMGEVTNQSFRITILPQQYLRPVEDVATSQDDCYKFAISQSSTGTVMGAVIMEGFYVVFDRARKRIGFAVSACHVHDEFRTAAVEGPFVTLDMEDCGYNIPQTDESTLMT
Test Summary: BACE-1 activity detection kit (fluorescence)
Type: biochemical
Assay Setup: read-out: Residual activity at 10 µM (%) BACE-1
# remaining activity at 10 µM per entry
Expressed in %, but write only the number.

Previously resolved entries follow.
- Structure Smiles String: "O=c1oc2c(O)c(O)cc3c(=O)oc4c(O)c(O)cc1c4c23"
  remaining activity at 10 µM, %: 59.1
- Structure Smiles String: "O=C(OCc1cc(O)c(O[C@@H]2O[C@H](CO)[C@@H](O)[C@H](O)[C@H]2O)c(O)c1)c1cc(O)c(O)c(Oc2c(C(=O)OCc3cc(O)c(O[C@@H]4O[C@H](CO)[C@@H](O)[C@H](O)[C@H]4O)c(O)c3)cc(O)c(O)c2O)c1"
  remaining activity at 10 µM, %: 78.9
- Structure Smiles String: "COc1cc2c(=O)oc3c(OC)c(O[C@@H]4O[C@H](CO)[C@@H](O)[C@H](O)[C@H]4O)cc4c(=O)oc(c1OC)c2c34"
  remaining activity at 10 µM, %: 91.9
- Structure Smiles String: "COc1cc2c(=O)oc3c(OC)c(O[C@@H]4O[C@@H](C)[C@H](O)[C@@H](O)[C@H]4O)cc4c(=O)oc(c1OC)c2c34"
  remaining activity at 10 µM, %: 99.7

Next, consider the following compound.
Task item: Param readout= remaining activity at 10 µM; system= BACE-1 (Homo sapiens, UniProt P56817); entry= COc1cc2c(=O)oc3c(OC)c(O)cc4c(=O)oc(c1OC)c2c34 ; returns value.
Reply: 90.1

====

Tgt: Recombinant human MAO-A (Homo sapiens, UniProt P21397)
Construct: purchased Sigma-Aldrich
Sequence (P21397 1-527): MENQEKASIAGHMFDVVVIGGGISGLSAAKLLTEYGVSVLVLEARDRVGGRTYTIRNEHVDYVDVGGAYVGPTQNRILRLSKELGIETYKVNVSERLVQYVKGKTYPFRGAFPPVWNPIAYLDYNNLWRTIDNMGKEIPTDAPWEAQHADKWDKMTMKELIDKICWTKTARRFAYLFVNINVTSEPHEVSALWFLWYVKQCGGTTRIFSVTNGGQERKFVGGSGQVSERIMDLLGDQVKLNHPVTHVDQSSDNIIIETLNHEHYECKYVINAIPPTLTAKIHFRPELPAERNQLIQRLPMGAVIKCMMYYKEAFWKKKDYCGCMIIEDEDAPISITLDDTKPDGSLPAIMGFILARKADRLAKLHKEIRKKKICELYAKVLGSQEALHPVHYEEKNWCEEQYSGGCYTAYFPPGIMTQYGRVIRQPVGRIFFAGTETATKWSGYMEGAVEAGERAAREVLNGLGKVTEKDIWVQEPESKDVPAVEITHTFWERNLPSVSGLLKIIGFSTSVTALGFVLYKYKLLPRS
Test Summary: biochemical
Assay Setup: read-out: Residual activity at 10 µM (%) MAO-A
The entries below come with measured remaining activity at 10 µM values attached.
Entry rule: numbers only, all in %.

Record excerpt, results attached:
- Compound: "O=c1oc2c(O)c(O)cc3c(=O)oc4c(O)c(O)cc1c4c23 [Compound 5, ellagic acid]"
  Value Unit: "%"
  Readout Number: 99.5
- Compound: "O=C(OCc1cc(O)c(O[C@@H]2O[C@H](CO)[C@@H](O)[C@H](O)[C@H]2O)c(O)c1)c1cc(O)c(O)c(Oc2c(C(=O)OCc3cc(O)c(O[C@@H]4O[C@H](CO)[C@@H](O)[C@H](O)[C@H]4O)c(O)c3)cc(O)c(O)c2O)c1 [Compound 1, chestanin]"
  Value Unit: "%"
  Readout Number: 91.7
- Compound: "COc1cc2c(=O)oc3c(OC)c(O[C@@H]4O[C@H](CO)[C@@H](O)[C@H](O)[C@H]4O)cc4c(=O)oc(c1OC)c2c34 [Compound 2]"
  Value Unit: "%"
  Readout Number: 91.3
- Compound: "COc1cc2c(=O)oc3c(OC)c(O)cc4c(=O)oc(c1OC)c2c34 [Compound 4, 3,3′,4-tri-O-methylellagic acid]"
  Value Unit: "%"
  Readout Number: 83.1

Could you now look at the following compound, please?
Task item: Please give the measured remaining activity at 10 µM for this compound: COc1cc2c(=O)oc3c(OC)c(O[C@@H]4O[C@@H](C)[C@H](O)[C@@H](O)[C@H]4O)cc4c(=O)oc(c1OC)c2c34 [Compound 3]
Reply: 83
